Molecular target: T1, DLG3_3, Q92796
T1 sequence (Q92796 374-475, limits assumed, looked up): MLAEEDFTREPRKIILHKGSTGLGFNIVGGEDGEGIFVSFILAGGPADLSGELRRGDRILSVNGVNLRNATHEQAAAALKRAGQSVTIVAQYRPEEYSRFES
Test: holdup assay
Set-up: key: below the threshold = too weak to quantify, mostly under pKd 3.1 to 4
Conditions: plain residues with an end cap or a label only (N-terminal biotin on a linker: ahx)
PARAMETER: pKd

> print(dat)
                        binder  parameter            obs.value
1     TESNLQTSSC [CGN, Q9P2M7]        pKd  below the threshold
2    QNTDDVQTSF [ACE2, Q9BYF1]        pKd  below the threshold
3  EKQAKGDTEF [CACYBP, Q9HB71]        pKd  below the threshold
4   APSRKLNTEI [TIAM1, Q13009]        pKd  below the threshold
5  TEAKLTETNA [MYO18A, Q92614]        pKd  below the threshold
